The origin of these recorded values is patent US8003649B2.

target: Androgen Receptor (AR) (Homo sapiens, UniProt P10275, T878A); construct: cell based immuno-fluorescence assay using the LNCaP prostate epithelial cell line; endogenous in cells; host or cells: LNCaP clone FGC (ATCC CRL-1740); test: LNCaP Androgen Receptor Down-regulation Cell Assay (immunofluorescence end point); type: cell-based; conditions: LNCaP prostate carcinoma cells, compound incubation 20-22 hours, 50% reduction of the AR signal; read-out: Androgen Receptor Down-regulation Assay (a) IC50/μM
Sequence (P10275 whole entry T878A): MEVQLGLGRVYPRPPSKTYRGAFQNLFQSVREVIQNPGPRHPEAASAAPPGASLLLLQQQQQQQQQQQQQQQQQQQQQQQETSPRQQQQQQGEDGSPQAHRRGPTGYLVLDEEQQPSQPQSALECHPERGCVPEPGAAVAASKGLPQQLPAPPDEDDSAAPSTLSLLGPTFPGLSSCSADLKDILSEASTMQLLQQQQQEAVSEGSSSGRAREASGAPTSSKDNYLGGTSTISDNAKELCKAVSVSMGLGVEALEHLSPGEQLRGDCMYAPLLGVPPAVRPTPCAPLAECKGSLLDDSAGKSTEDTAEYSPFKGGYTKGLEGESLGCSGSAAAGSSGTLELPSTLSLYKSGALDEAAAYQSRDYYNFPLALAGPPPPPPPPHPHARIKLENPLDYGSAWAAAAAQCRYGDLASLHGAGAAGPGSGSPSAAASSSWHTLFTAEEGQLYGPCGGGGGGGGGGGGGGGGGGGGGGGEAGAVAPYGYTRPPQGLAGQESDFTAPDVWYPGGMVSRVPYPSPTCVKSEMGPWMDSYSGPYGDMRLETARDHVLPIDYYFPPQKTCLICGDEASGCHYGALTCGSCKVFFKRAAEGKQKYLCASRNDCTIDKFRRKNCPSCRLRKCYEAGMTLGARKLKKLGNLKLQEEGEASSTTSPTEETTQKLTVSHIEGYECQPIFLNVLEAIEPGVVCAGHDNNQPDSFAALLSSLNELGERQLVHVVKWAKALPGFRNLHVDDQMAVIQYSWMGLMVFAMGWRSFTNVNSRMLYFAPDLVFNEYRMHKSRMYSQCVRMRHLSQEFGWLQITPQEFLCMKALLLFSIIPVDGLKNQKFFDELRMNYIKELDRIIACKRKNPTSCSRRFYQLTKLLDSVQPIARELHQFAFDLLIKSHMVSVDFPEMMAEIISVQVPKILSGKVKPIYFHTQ
Just a reminder that ties go to label 0: only DC50 strictly below 1 µM counts as label 1.

Consider the following illustrative entries.
[
  {
    "compound": "FC(F)(F)c1nnc2ccc(N3CCCC(c4ccccc4)C3)nn12 (stereo not drawn) [Example 515]",
    "system": "Androgen Receptor (AR) (Homo sapiens, UniProt P10275, T878A)",
    "discrete label": "label 0"
  },
  {
    "compound": "Cc1cc(COc2ccc(C3CCN(c4ccc5nnc(C(F)(F)F)n5n4)CC3)cc2)no1 [Example 729]",
    "system": "Androgen Receptor (AR) (Homo sapiens, UniProt P10275, T878A)",
    "discrete label": "label 1"
  },
  {
    "compound": "Fc1cccc(CN2CCN(c3ccc4nnc(C(F)(F)F)n4n3)CC(F)(F)C2)c1 [Example 842]",
    "system": "Androgen Receptor (AR) (Homo sapiens, UniProt P10275, T878A)",
    "discrete label": "label 0"
  }
]

Input: # check: DC50 < 1 µM for Fc1cc(Cl)cc(CN2CCN(c3ccc4nnc(C(F)(F)F)n4n3)CC2)c1 [Example 759]
Output: label 0

Input: # check: DC50 < 1 µM for FC(F)c1ccccc1CN1CCN(c2ccc3nnc(C(F)F)n3n2)CC1 [Example 824]
Output: label 0

Input: # check: DC50 < 1 µM for FC(F)(F)c1nnc2ccc(N3CCC(c4c[nH]c5ccccc45)CC3)nn12 [Example 507]
Output: label 1

Input: # check: DC50 < 1 µM for FC(F)(Cl)c1nnc2ccc(N3CCN(CCc4ccccc4)CC3)nn12 [Example 349]
Output: label 0

Input: # check: DC50 < 1 µM for N#Cc1ccc(OC2CCN(c3ccc4nnc(C(F)(F)F)n4n3)CC2)cc1 [Example 627]
Output: label 0

Input: # check: DC50 < 1 µM for Fc1cc(F)cc(CN2CCN(c3ccc4nnc(C(F)F)n4n3)CC2)c1 [Example 251]
Output: label 0
